// provenance: patent US10517889B2

Collected % inhibition of SMAD7 mRNA expression values appear next to each entry.
- Tested on: human SMAD7 mRNA
- PROTOCOL NOTES: Antisense inhibition of human SMAD7 mRNA expression in Hep3B cells by 5-10-5 MOE gapmers, single concentration, electroporation, RT-PCR (Example 1, Study 1 and 2)
- Format: cell-based
- RECORDED CONDITIONS: Study 2, electroporation with 15,000 nM antisense oligonucleotide, 5-10-5 MOE gapmers targeting SEQ ID NO: 1 and 2
Strand notation (5' to 3'): a small letter for the sugar, then the base; units joined by * are phosphorothioate-linked, units joined directly phosphodiester-linked; [ ] holds rarer units or linkages, { } end groups; capitals alone tell only the bases. e = 2'-O-(2-methoxyethyl) (MOE); [5mC] = 5-methylcytosine; d = 2'-deoxy (DNA)
MEASURED METRIC: % inhibition of SMAD7 mRNA expression (%)

1. 771508 (antisense e[5mC]*e[5mC]*eT*eG*e[5mC]*dT*d[5mC]*dA*dG*d[5mC]*dT*d[5mC]*dA*d[5mC]*dG*e[5mC]*eT*e[5mC]*eT*eG) [compound 771508] : 8
2. 771487 (antisense e[5mC]*eT*eG*e[5mC]*eA*d[5mC]*dG*dG*dT*dA*dA*dA*dG*d[5mC]*d[5mC]*e[5mC]*eG*eT*e[5mC]*e[5mC]) [compound 771487] : 45
3. 771644 (antisense eG*eA*eA*eG*eA*dA*dA*dT*dG*dA*dA*dA*dG*dA*dA*eG*eA*eG*eT*eT) [compound 771644] : 0
4. 771550 (antisense eT*eG*e[5mC]*eT*eT*d[5mC]*d[5mC]*d[5mC]*d[5mC]*dT*d[5mC]*dT*dT*d[5mC]*d[5mC]*eT*eA*eT*e[5mC]*eA) [compound 771550] : 4
5. 771679 (antisense eG*e[5mC]*eA*eT*e[5mC]*dT*dT*dT*dT*d[5mC]*dT*dT*dT*dA*dT*eT*eT*eT*eT*e[5mC]) [compound 771679] : 0
6. 771628 (antisense e[5mC]*e[5mC]*eA*eG*eG*dG*dA*d[5mC]*dA*dT*d[5mC]*d[5mC]*d[5mC]*d[5mC]*dG*e[5mC]*eT*eT*eG*e[5mC]) [compound 771628] : 12
7. 771588 (antisense eA*eG*eG*e[5mC]*e[5mC]*d[5mC]*dG*dT*dG*dT*d[5mC]*d[5mC]*dT*dT*dG*eA*eT*eG*eA*eG) [compound 771588] : 13
8. 771559 (antisense eA*eA*eG*eT*eG*dA*dA*dA*dT*dG*dA*dT*dG*dA*d[5mC]*e[5mC]*eG*e[5mC]*e[5mC]*e[5mC]) [compound 771559] : 49
9. 771647 (antisense eG*eA*eG*eT*eG*dT*dA*dT*dG*dA*dG*dT*dT*dG*dT*eA*eG*eA*eA*eG) [compound 771647] : 6
10. 771636 (antisense e[5mC]*e[5mC]*eT*eT*eG*dG*dG*dT*dT*dA*dT*dG*dA*d[5mC]*dG*eG*eA*e[5mC]*e[5mC]*eA) [compound 771636] : 0
11. 771590 (antisense eG*e[5mC]*e[5mC]*eT*eG*dT*dG*dG*dA*d[5mC]*dA*dG*dG*d[5mC]*d[5mC]*e[5mC]*eG*eT*eG*eT) [compound 771590] : 14
